Numbers sourced from the Human Domainome abundance scans (Beltran et al. 2025).

B1: Storkhead-box protein 2, residues 64 to 141; numbered along this chain, Q9P2F5 (parent)
chain: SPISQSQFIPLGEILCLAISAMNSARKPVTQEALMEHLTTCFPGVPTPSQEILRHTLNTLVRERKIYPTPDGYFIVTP

# Variants of: B1
# assay_procedure: abundance fitness (aPCA) (normalised: wild type 0, dead -1); higher = more abundant; growth selection in yeast, the domain comes from the species named
# condition_details: Homo sapiens
observed_property: abundance fitness

mutation_string: I19R
assay_value: -1.01
//
mutation_string: D71E
assay_value: -0.005
//
mutation_string: S24R
assay_value: -0.018
//
mutation_string: P46H
assay_value: -0.14
//
mutation_string: F8N
assay_value: -0.021
//
mutation_string: I3Y
assay_value: -0.158
//
mutation_string: E13N
assay_value: 0.02
//
mutation_string: L57T
assay_value: -0.193
//
mutation_string: P78C
assay_value: 0.072
//
mutation_string: R62E
assay_value: 0.017
//
mutation_string: S20M
assay_value: -0.115
//
mutation_string: C41G
assay_value: 0.019
//
mutation_string: T59P
assay_value: -0.921
//
mutation_string: C16G
assay_value: -0.249
//
mutation_string: I75P
assay_value: -0.039
//
mutation_string: E36R
assay_value: 0.003
//
mutation_string: P2M
assay_value: 0.013
//
mutation_string: P2C
assay_value: -0.15
//
mutation_string: A25I
assay_value: -0.053
//
mutation_string: S49H
assay_value: -0.225
//
mutation_string: H55C
assay_value: -0.033
//
mutation_string: P46Y
assay_value: -0.402
